- Assay Notes: A quantitative high throughput screen for small molecules that induce DNA re-replication in SW480 colon adenocarcinoma cells. Note: nearly all actives have a fitted effect of over 55% in size.
- Condition Context: Hoechst DNA content imaging, 48 h; series mostly up to 46.1 µM
Out of some 340,000 compounds screened, about 6,200 (1.8%) were called active. Not shown: some 10% with an inconclusive outcome. Calls come from the whole dose curve; as a rule, active = well fitted activation curve with a large enough effect; inconclusive = small, poorly fitted or top-dose-only effect; inactive = no such curve, though single readings can be large or run the other way. Shown is part of a subset that was picked to be rich in actives.
// allowed return values: active, inactive

Examples from the recorded data:
>>> df
                                   molecule       cat
0                 CN(C)c1ccc(CSc2ccccc2)cc1  inactive
1  COc1cc(C(=O)NC2CCN(Cc3ccccc3)CC2)cc(Cl)c1OC(C)C    active
2           COc1ccc(Nc2cc(=O)oc3ccccc23)cc1    active
3  CCN(CC)S(=O)(=O)c1ccc(N2CCOCC2)c(NC(=O)c2ccc(=O)n(C)n2)c1  inactive
4  Cc1cc(C(=O)Nc2c(C)n(C)n(-c3ccccc3)c2=O)cs1  inactive

Asked: What was the test verdict on "O=C(O)c1cccc(N2C(=O)Nc3ccccc3N2O)c1" ?
Given back: inactive
